System: human colon cancer HCT116 cells
assay.info: Antiproliferative activity, SRB assay, 72 h
Format: cell-based
condition.details: Homo sapiens, HCT-116; HCT116, 72 h, SRB; read-out: IC50
pIC50: −log10 of the molar value.

{"molecule": "C=C(C)[C@@H]1CC[C@]2(COC(C)=O)CC[C@]3(C)[C@H](CC[C@@H]4[C@@]5(C)CC[C@H](O)C(C)(C)[C@@H]5CC[C@]43C)[C@@H]12 [A, 28-O-acetylbetulin, reference compound]", "pIC50": 4.39}
{"molecule": "C=C(C)[C@@H]1CC[C@]2(COC(=O)C#CC)CC[C@]3(C)C(CCC4[C@@]5(C)CC[C@H](OC(=O)CC(C)(C)C(=O)O)C(C)(C)C5CC[C@]43C)C12 (stereo partly drawn) [Compound 5c]", "pIC50": 5.03}
{"molecule": "C#CCCC(=O)OC[C@]12CC[C@@H](C(=C)C)C1C1CCC3[C@@]4(C)CC[C@H](OC(=O)CCC(=O)O)C(C)(C)C4CC[C@@]3(C)[C@]1(C)CC2 (stereo partly drawn) [Compound 6b]", "pIC50": 5.00}
{"molecule": "C=C(C)[C@@H]1CC[C@]2(CO)CC[C@]3(C)C(CCC4[C@@]5(C)CC[C@H](OC(=O)CCC(=O)O)C(C)(C)C5CC[C@]43C)C12 (stereo partly drawn) [Compound 6]", "pIC50": 4.69}
{"molecule": "C#CCCC(=O)OC[C@]12CC[C@@H](C(=C)C)C1C1CCC3[C@@]4(C)CC[C@H](OC(=O)CC(C)(C)CC(=O)O)C(C)(C)C4CC[C@@]3(C)[C@]1(C)CC2 (stereo partly drawn) [Compound 4b]", "pIC50": 5.11}
{"molecule": "C=C(C)[C@@H]1CC[C@]2(CO)CC[C@]3(C)[C@H](CC[C@@H]4[C@@]5(C)CC[C@H](O)C(C)(C)[C@@H]5CC[C@]43C)[C@@H]12 [B, betulin, reference compound]", "pIC50": 4.42}

---

Test system: human colon cancer HCT116 cells
assay.info: Antiproliferative activity, SRB assay, 72 h
Type: cell-based
condition.details: Homo sapiens, HCT-116; HCT116, 72 h, SRB; read-out: IC50
assay.readout: IC50

{"molecule": "C#CC(=O)OC[C@]12CC[C@@H](C(=C)C)C1C1CCC3[C@@]4(C)CC[C@H](OC(=O)CC(C)(C)C(=O)O)C(C)(C)C4CC[C@@]3(C)[C@]1(C)CC2 (stereo partly drawn)", "target.under.test": "human colon cancer HCT116 cells", "assay.readout": "IC50", "test.value": "3.64 µM"}
{"molecule": "C=C(C)[C@@H]1CC[C@]2(COC(=O)CC)CC[C@]3(C)C(CCC4[C@@]5(C)CC[C@H](OC(=O)CC(C)(C)C(=O)O)C(C)(C)C5CC[C@]43C)C12 (stereo partly drawn)", "target.under.test": "human colon cancer HCT116 cells", "assay.readout": "IC50", "test.value": "12.3 µM"}
{"molecule": "C=C(C)[C@@H]1CC[C@]2(COC(=O)CC)CC[C@]3(C)C(CCC4[C@@]5(C)CC[C@H](OC(=O)CC(C)(C)CC(=O)O)C(C)(C)C5CC[C@]43C)C12 (stereo partly drawn)", "target.under.test": "human colon cancer HCT116 cells", "assay.readout": "IC50", "test.value": "16.9 µM"}

---

Each entry below lists one item and its recorded SI value.
System: human biphenotypic B myelomonocytic leukemia MV4-11
assay.info: Antiproliferative activity, MTT assay, 72 h
Type: cell-based
condition.details: IC50 MCF-10A / IC50 MV4-11

{"molecule": "C=C(C)[C@@H]1CC[C@]2(COC(C)=O)CC[C@]3(C)C(CCC4[C@@]5(C)CC[C@H](OC(=O)CC(C)(C)CC(=O)O)C(C)(C)C5CC[C@]43C)C12 (some centres unmarked)", "target.under.test": "human biphenotypic B myelomonocytic leukemia MV4-11", "SI": 11.44}
{"molecule": "C#CCCC(=O)OC[C@]12CC[C@@H](C(=C)C)C1C1CCC3[C@@]4(C)CC[C@H](OC(=O)CC(C)(C)C(=O)O)C(C)(C)C4CC[C@@]3(C)[C@]1(C)CC2 (some centres unmarked)", "target.under.test": "human biphenotypic B myelomonocytic leukemia MV4-11", "SI": 7.10}
{"molecule": "C=C(C)[C@@H]1CC[C@]2(COC(=O)CC)CC[C@]3(C)C(CCC4[C@@]5(C)CC[C@H](OC(=O)CC(C)(C)C(=O)O)C(C)(C)C5CC[C@]43C)C12 (some centres unmarked)", "target.under.test": "human biphenotypic B myelomonocytic leukemia MV4-11", "SI": 13.63}
{"molecule": "C=C(C)[C@@H]1CC[C@]2(COC(=O)C#CC3CC3)CC[C@]3(C)C(CCC4[C@@]5(C)CC[C@H](OC(=O)CC(C)(C)CC(=O)O)C(C)(C)C5CC[C@]43C)C12 (some centres unmarked)", "target.under.test": "human biphenotypic B myelomonocytic leukemia MV4-11", "SI": 21.50}
{"molecule": "C=C(C)[C@@H]1CC[C@]2(CO)CC[C@]3(C)C(CCC4[C@@]5(C)CC[C@H](OC(=O)CC(C)(C)CC(=O)O)C(C)(C)C5CC[C@]43C)C12 (some centres unmarked)", "target.under.test": "human biphenotypic B myelomonocytic leukemia MV4-11", "SI": 6.60}

---

Tested on: human colon cancer HCT116 cells
assay.info: Antiproliferative activity, SRB assay, 72 h
Format: cell-based
condition.details: Homo sapiens, HCT-116; HCT116, 72 h, SRB; read-out: IC50
assay.readout: IC50 (µM)

{"compound": "C=C(C)[C@@H]1CC[C@]2(CO)CC[C@]3(C)C(CCC4[C@@]5(C)CC[C@H](OC(=O)CC(C)(C)C(=O)O)C(C)(C)C5CC[C@]43C)C12 (some centres unmarked)", "assay.readout": "IC50", "readout.units": "µM", "test.value": 14.7}
{"compound": "C=C(C)[C@@H]1CC[C@]2(COC(C)=O)CC[C@]3(C)C(CCC4[C@@]5(C)CC[C@H](OC(=O)CC(C)(C)CC(=O)O)C(C)(C)C5CC[C@]43C)C12 (some centres unmarked)", "assay.readout": "IC50", "readout.units": "µM", "test.value": 6.38}
{"compound": "C=C(C)[C@@H]1CC[C@]2(COC(=O)C#CC3CC3)CC[C@]3(C)C(CCC4[C@@]5(C)CC[C@H](OC(=O)CC(C)(C)CC(=O)O)C(C)(C)C5CC[C@]43C)C12 (some centres unmarked)", "assay.readout": "IC50", "readout.units": "µM", "test.value": 23.2}
{"compound": "C#CC(=O)OC[C@]12CC[C@@H](C(=C)C)C1C1CCC3[C@@]4(C)CC[C@H](OC(=O)CC(C)(C)CC(=O)O)C(C)(C)C4CC[C@@]3(C)[C@]1(C)CC2 (some centres unmarked)", "assay.readout": "IC50", "readout.units": "µM", "test.value": 7.85}
{"compound": "C=C(C)[C@@H]1CC[C@]2(COC(=O)C#CC)CC[C@]3(C)C(CCC4[C@@]5(C)CC[C@H](OC(=O)CC(C)(C)CC(=O)O)C(C)(C)C5CC[C@]43C)C12 (some centres unmarked)", "assay.readout": "IC50", "readout.units": "µM", "test.value": 8.45}

---

System: human breast cancer MCF-7
assay.info: Antiproliferative activity, SRB assay, 72 h
Format: cell-based
condition.details: IC50 MCF-10A / IC50 MCF-7

{"molecule": "C#CC(=O)OC[C@]12CC[C@@H](C(=C)C)C1C1CCC3[C@@]4(C)CC[C@H](OC(=O)CC(C)(C)C(=O)O)C(C)(C)C4CC[C@@]3(C)[C@]1(C)CC2 (some centres unmarked)", "SI": 0.65}
{"molecule": "C#CCCC(=O)OC[C@]12CC[C@@H](C(=C)C)C1C1CCC3[C@@]4(C)CC[C@H](OC(=O)CCC(=O)O)C(C)(C)C4CC[C@@]3(C)[C@]1(C)CC2 (some centres unmarked)", "SI": 2.69}
{"molecule": "C#CC(=O)OC[C@]12CC[C@@H](C(=C)C)C1C1CCC3[C@@]4(C)CC[C@H](OC(=O)CC(C)(C)CC(=O)O)C(C)(C)C4CC[C@@]3(C)[C@]1(C)CC2 (some centres unmarked)", "SI": 2.01}
{"molecule": "C=C(C)[C@@H]1CC[C@]2(COC(=O)C#CC)CC[C@]3(C)C(CCC4[C@@]5(C)CC[C@H](OC(=O)CC(C)(C)CC(=O)O)C(C)(C)C5CC[C@]43C)C12 (some centres unmarked)", "SI": 1.96}
{"molecule": "C#CC(=O)OC[C@]12CC[C@@H](C(=C)C)C1C1CCC3[C@@]4(C)CC[C@H](OC(=O)CCC(=O)O)C(C)(C)C4CC[C@@]3(C)[C@]1(C)CC2 (some centres unmarked)", "SI": 3.09}

Cited source for all entries: paper PMC11821258
